Could you please report measured viability, T/C for the items listed next?
# System: 755483-174-R-J1-PDC complex spheroid growth, percent test/control
# PROCEDURE_DETAILS: Anticancer human tumor 755483-174-R-J1-PDC patient-derived rhabdomyosarcoma cell line growth inhibition [Asc]
# STATED_CONDITIONS: second compound 0.03 µM; first compound 0.00316 µM; stronger effect = lower value
# Text: Multicellular complex tumor spheroid response to apoptosis pathway targeting inhibitors Alrizomadlin, Pelcitoclax, and Dasminapant in combination with a variety of drugs and investigational agents in selected tumor cell lines […] Compounds. […] If the clinical Cmax for an agent had not been determined, the highest concentration tested was 10 microM. […]
Supply the numeric figure in %, leaving out any unit text.

Q. Fill in: viability, T/C of O=C(c1ccc(F)c(F)c1Nc1ccc(I)cc1F)N1CC(O)([C@@H]2CCCCN2)C1 + CCN1C(C(=O)NC23CCC(C(=O)O)(CC2)CC3)C(c2cccc(Cl)c2F)C2(C(=O)Nc3cc(Cl)ccc32)C12CCCCC2 is ___
A. 85.3

Q. Try this molecule too: Cn1ncnc1[C@H]1c2n[nH]c(=O)c3cc(F)cc(c23)N[C@@H]1c1ccc(F)cc1 + CCN1C(C(=O)NC23CCC(C(=O)O)(CC2)CC3)C(c2cccc(Cl)c2F)C2(C(=O)Nc3cc(Cl)ccc32)C12CCCCC2
A. 55.6

Q. Here is the next molecule: COc1c(OCCCN2CCOCC2)ccc2c3n(c(=NC(=O)c4cnc(N)nc4)nc12)CCN3 + CCN1C(C(=O)NC23CCC(C(=O)O)(CC2)CC3)C(c2cccc(Cl)c2F)C2(C(=O)Nc3cc(Cl)ccc32)C12CCCCC2
A. 70.7

Q. Another molecule to check: CNC(C)C(=O)NC1CN(S(=O)(=O)c2cccc(S(=O)(=O)N3CCC4CCC(C(=O)NC(c5ccccc5)c5ccccc5)N4C(=O)C(NC(=O)C(C)NC)C3)c2)CCC2CCC(C(=O)NC(c3ccccc3)c3ccccc3)N2C1=O (stereo unspecified) + CCN1C(C(=O)NC23CCC(C(=O)O)(CC2)CC3)C(c2cccc(Cl)c2F)C2(C(=O)Nc3cc(Cl)ccc32)C12CCCCC2
A. 80.3

Q. Then what about the molecule CCN1CCN(Cc2ccc(Nc3ncc(F)c(-c4cc(F)c5nc(C)n(C(C)C)c5c4)n3)nc2)CC1 + CCN1C(C(=O)NC23CCC(C(=O)O)(CC2)CC3)C(c2cccc(Cl)c2F)C2(C(=O)Nc3cc(Cl)ccc32)C12CCCCC2 ?
A. 103

Q. Then NC1CCC(NC2CC2c2ccccc2)CC1 (stereo unspecified) + CCN1C(C(=O)NC23CCC(C(=O)O)(CC2)CC3)C(c2cccc(Cl)c2F)C2(C(=O)Nc3cc(Cl)ccc32)C12CCCCC2 ?
A. 129

----------
# Test system: 755483-174-R-J1-PDC complex spheroid growth, percent test/control
# PROCEDURE_DETAILS: Anticancer human tumor 755483-174-R-J1-PDC cell line growth inhibition [Asc];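 also: spheroids exposed to compounds for seven days before readout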
# STATED_CONDITIONS: curve of first compound; second compound 0.1 µM
pIC50: −log10 of the molar value.
Hi there, I'd appreciate the recorded pIC50 for every entry that follows.

Q. # value lookup — system 755483-174-R-J1-PDC complex spheroid growth, percent test/control, readout pIC50, item O=C(c1ccc(F)c(F)c1Nc1ccc(I)cc1F)N1CC(O)([C@@H]2CCCCN2)C1 + CNC(C)C(=O)NC1CN(S(=O)(=O)c2cccc(S(=O)(=O)N3CCC4CCC(C(=O)NC(c5ccccc5)c5ccccc5)N4C(=O)C(NC(=O)C(C)NC)C3)c2)CCC2CCC(C(=O)NC(c3ccccc3)c3ccccc3)N2C1=O
A. > 8.50

Q. // query: CCN1CCN(Cc2ccc(Nc3ncc(F)c(-c4cc(F)c5nc(C)n(C(C)C)c5c4)n3)nc2)CC1 + CNC(C)C(=O)NC1CN(S(=O)(=O)c2cccc(S(=O)(=O)N3CCC4CCC(C(=O)NC(c5ccccc5)c5ccccc5)N4C(=O)C(NC(=O)C(C)NC)C3)c2)CCC2CCC(C(=O)NC(c3ccccc3)c3ccccc3)N2C1=O
A. < 6.00

Q. Please answer likewise for CNC(C)C(=O)NC1CN(S(=O)(=O)c2cccc(S(=O)(=O)N3CCC4CCC(C(=O)NC(c5ccccc5)c5ccccc5)N4C(=O)C(NC(=O)C(C)NC)C3)c2)CCC2CCC(C(=O)NC(c3ccccc3)c3ccccc3)N2C1=O (stereo unspecified) + Cc1c(S(C)(=O)=O)c(-c2cc(F)cc(N3CCN(c4ccc(NS(=O)(=O)c5ccc(NC(CCN6CCC(C(=O)OCCCP(=O)(O)O)CC6)CSc6ccccc6)c(S(=O)(=O)C(F)(F)F)c5)cc4)CC3)c2)c(-c2ccc(Cl)cc2)n1C(C)C
A. > 8.50

Q. Could you do the same for COc1c(OCCCN2CCOCC2)ccc2c3n(c(=NC(=O)c4cnc(N)nc4)nc12)CCN3 + CNC(C)C(=O)NC1CN(S(=O)(=O)c2cccc(S(=O)(=O)N3CCC4CCC(C(=O)NC(c5ccccc5)c5ccccc5)N4C(=O)C(NC(=O)C(C)NC)C3)c2)CCC2CCC(C(=O)NC(c3ccccc3)c3ccccc3)N2C1=O , please?
A. > 8.50

Q. Follow-up entry: C=C(F)C(=O)N1CCN(c2nc(OCC3CCCN3C)nc3c2CCN(c2cccc4cccc(Cl)c24)C3)CC1CC#N (stereo unspecified) + Cc1c(S(C)(=O)=O)c(-c2cc(F)cc(N3CCN(c4ccc(NS(=O)(=O)c5ccc(NC(CCN6CCC(C(=O)OCCCP(=O)(O)O)CC6)CSc6ccccc6)c(S(=O)(=O)C(F)(F)F)c5)cc4)CC3)c2)c(-c2ccc(Cl)cc2)n1C(C)C
A. 6.63

Q. Queued: O=C(c1ccc(F)c(F)c1Nc1ccc(I)cc1F)N1CC(O)([C@@H]2CCCCN2)C1 + Cc1c(S(C)(=O)=O)c(-c2cc(F)cc(N3CCN(c4ccc(NS(=O)(=O)c5ccc(NC(CCN6CCC(C(=O)OCCCP(=O)(O)O)CC6)CSc6ccccc6)c(S(=O)(=O)C(F)(F)F)c5)cc4)CC3)c2)c(-c2ccc(Cl)cc2)n1C(C)C
A. 7.67

----------
I'd appreciate it if you could supply IC50 values for the items below.
# System: 755483-174-R-J1-PDC complex spheroid growth, percent test/control
# PROCEDURE_DETAILS: Anticancer human tumor 755483-174-R-J1-PDC cell line growth inhibition [Asc];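 also: spheroids exposed to compounds for seven days before readout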
# STATED_CONDITIONS: curve of first compound; second compound 0.1 µM

Q. Any idea what IC50 was measured for NC(=O)C(=Cn1cnc(-c2cc(C(F)(F)F)cc(C(F)(F)F)c2)n1)c1cncnc1 + Cc1c(S(C)(=O)=O)c(-c2cc(F)cc(N3CCN(c4ccc(NS(=O)(=O)c5ccc(NC(CCN6CCC(C(=O)OCCCP(=O)(O)O)CC6)CSc6ccccc6)c(S(=O)(=O)C(F)(F)F)c5)cc4)CC3)c2)c(-c2ccc(Cl)cc2)n1C(C)C ?
A. < 0.949 nM

Q. Now give it for NC1CCC(NC2CC2c2ccccc2)CC1 (configuration not stated) + CNC(C)C(=O)NC1CN(S(=O)(=O)c2cccc(S(=O)(=O)N3CCC4CCC(C(=O)NC(c5ccccc5)c5ccccc5)N4C(=O)C(NC(=O)C(C)NC)C3)c2)CCC2CCC(C(=O)NC(c3ccccc3)c3ccccc3)N2C1=O too.
A. < 0.316 nM

Q. And the next one, C=CC(=O)N1CCN(c2nc(=O)n(-c3c(C)ccnc3C(C)C)c3nc(-c4c(O)cccc4F)c(F)cc23)C(C)C1 (configuration not stated) + Cc1c(S(C)(=O)=O)c(-c2cc(F)cc(N3CCN(c4ccc(NS(=O)(=O)c5ccc(NC(CCN6CCC(C(=O)OCCCP(=O)(O)O)CC6)CSc6ccccc6)c(S(=O)(=O)C(F)(F)F)c5)cc4)CC3)c2)c(-c2ccc(Cl)cc2)n1C(C)C ?
A. > 10000 nM

Q. What do you get for C=C(F)C(=O)N1CCN(c2nc(OCC3CCCN3C)nc3c2CCN(c2cccc4cccc(Cl)c24)C3)CC1CC#N (configuration not stated) + CNC(C)C(=O)NC1CN(S(=O)(=O)c2cccc(S(=O)(=O)N3CCC4CCC(C(=O)NC(c5ccccc5)c5ccccc5)N4C(=O)C(NC(=O)C(C)NC)C3)c2)CCC2CCC(C(=O)NC(c3ccccc3)c3ccccc3)N2C1=O ?
A. 428 nM

Q. Check O=C(c1cc(Cc2n[nH]c(=O)c3ccccc23)ccc1F)N1CCN(C(=O)C2CC2)CC1 + Cc1c(S(C)(=O)=O)c(-c2cc(F)cc(N3CCN(c4ccc(NS(=O)(=O)c5ccc(NC(CCN6CCC(C(=O)OCCCP(=O)(O)O)CC6)CSc6ccccc6)c(S(=O)(=O)C(F)(F)F)c5)cc4)CC3)c2)c(-c2ccc(Cl)cc2)n1C(C)C too.
A. < 31.6 nM

Q. Here is the next compound: CCN1C(C(=O)NC23CCC(C(=O)O)(CC2)CC3)C(c2cccc(Cl)c2F)C2(C(=O)Nc3cc(Cl)ccc32)C12CCCCC2 (configuration not stated) + CNC(C)C(=O)NC1CN(S(=O)(=O)c2cccc(S(=O)(=O)N3CCC4CCC(C(=O)NC(c5ccccc5)c5ccccc5)N4C(=O)C(NC(=O)C(C)NC)C3)c2)CCC2CCC(C(=O)NC(c3ccccc3)c3ccccc3)N2C1=O
A. < 9.49 nM

Q. Also need C#Cc1c(F)ccc2cc(O)cc(-c3ncc4c(N5CC6CCC(C5)N6)nc(OCC56CCCN5CC(F)C6)nc4c3F)c12 (configuration not stated) + Cc1c(S(C)(=O)=O)c(-c2cc(F)cc(N3CCN(c4ccc(NS(=O)(=O)c5ccc(NC(CCN6CCC(C(=O)OCCCP(=O)(O)O)CC6)CSc6ccccc6)c(S(=O)(=O)C(F)(F)F)c5)cc4)CC3)c2)c(-c2ccc(Cl)cc2)n1C(C)C , thanks.
A. 1200 nM
